# System: cultured cells of Taxus media
# TEST: Taxus media cell culture with derivatives of jasmonic acids
# Type: cell-based
# TEST SETTINGS: concentration of derivative of jasmonic acids 100 μM
Label True when yield of taxane-type diterpenes, cephalomannine < 6 mg/L; otherwise False.

COMPOUND | GROUP
CC/C=C\CC1/C(=N\NC=O)CCC1CC(=O)OC (stereo not shown) | False
CC/C=C\CC1C(=NN)CCC1CC(=O)OC (stereo not shown) | False
CC/C=C\CC1C(=NS(N)(=O)=O)CCC1CC(=O)OC (stereo not shown) | False
CC/C=C\CC1/C(=N\NC(N)=O)CCC1CC(=O)OC (stereo not shown) | True
CC/C=C\CC1C(CC(=O)OC)CCC1NO (stereo not shown) | True

Please indicate whether the reported yield of taxane-type diterpenes, cephalomannine of CC/C=C\CC1C(=NC#N)CCC1CC(=O)OC (stereo not shown) is strictly below 6 mg/L. True

Please indicate whether the reported yield of taxane-type diterpenes, cephalomannine of CC/C=C\CC1C(=O)CCC1CC(=O)OC (stereo not shown) [Reference Example 1, methyl jasmonate, reference compound] is strictly below 6 mg/L. True

Please indicate whether the reported yield of taxane-type diterpenes, cephalomannine of CC/C=C\CC1C(=NO)CCC1CC(=O)OC (stereo not shown) is strictly below 6 mg/L. False

Please indicate whether the reported yield of taxane-type diterpenes, cephalomannine of CC/C=C\CC1/C(=N\OC)CCC1CC(=O)OC (stereo not shown) is strictly below 6 mg/L. True
